assay: Toxicity liver stage against HepG2, at 10uM; assay type: cell-based; design: test concentration 10 uM, cell line HepG2-A16-CD81EGFP; conditions: human, HepG2-A16-CD81EGFP cells; read-out: INHIBITION
Listing: cytotoxicity at 10 µM of selected compounds
The answer consists of two parts: a number and, after it, its unit.

Study these solved cases before continuing.
CN(C)[C@@H]1CCN(c2ncc(F)cn2)[C@H]1Cc1ccncc1 : -1.96%
COCCCNC(=O)C1(NC(=O)c2ccc3[nH]ncc3c2)CCCC1 : -1.62%
O=C(Nc1ccccc1)[C@H]1C[C@H]2CN(S(=O)(=O)c3ccccc3)C[C@@H]1O2 : 5.8%
Fc1ccc(F)c(CN2CCC(c3cc4ncccc4cn3)CC2)c1 : -5.14%
O=C(CN1C(=O)c2ccccc2CS1(=O)=O)c1ccc(Cl)cc1 : 4.17%

Sample Cc1ccc(N2CC[C@H]3OCC[C@@]3(C(=O)N3CCCC3)C2)nn1 — what was its cytotoxicity at 10 µM?
2.46%

Sample CNC(=O)[C@@H](C1CCCCC1)N1CCC[C@H]1C(=O)NC1CC1 — what was its cytotoxicity at 10 µM?
5.56%

Sample Cc1cc(C[C@@H]2CCC[C@H]2NCc2cc(C)c(O)c(C)c2)on1 — what was its cytotoxicity at 10 µM?
3.37%

* * *

assay: Toxicity liver stage against HepG2, at 10uM; assay type: cell-based; design: test concentration 10 uM, cell line HepG2-A16-CD81EGFP; details: human, HepG2-A16-CD81EGFP cells; read-out: INHIBITION
Listing: cytotoxicity at 10 µM of selected compounds
Response body: numeric value in %, unit text excluded.

C=C(C)Cn1c(=O)nc(N)c2c(-c3ccc(OC)cc3)csc21 : -26
Cc1noc(C)c1S(=O)(=O)NC(=O)COc1ccc(C(C)C)cc1 : 2.1

Sample Cc1ccccc1Cc1nc(CSc2nnc(N)n2C2CC2)no1 — what was its cytotoxicity at 10 µM?
18

Sample O=C(c1nn(-c2ccccc2F)cc1O)N1CCCC1 — what was its cytotoxicity at 10 µM?
-4.99

Sample CCC(C)Oc1cc(C(=O)N(c2cccnc2)C(C)C)ccn1 (stereo not given) — what was its cytotoxicity at 10 µM?
8.77

Sample COc1ccc(OC)c(-n2nnnc2SCC2CCCCO2)c1 (stereo not given) — what was its cytotoxicity at 10 µM?
11.7

Sample OC1(CN2CCC(Cc3ncccn3)CC2)CCCCC1 — what was its cytotoxicity at 10 µM?
7.69

Sample Cc1cc(NCCNS(=O)(=O)c2cccc(Cl)c2)nc(C)n1 — what was its cytotoxicity at 10 µM?
2.9

Sample CCC(CC)(CCO)CNC(=O)c1ccon1 — what was its cytotoxicity at 10 µM?
6.27

Sample CN(CCNC(=O)c1scnc1Cl)c1ccccc1 — what was its cytotoxicity at 10 µM?
6.88

* * *

assay: Toxicity liver stage against HepG2, at 10uM; format: cell-based; parameters: test concentration 10 uM, cell line HepG2-A16-CD81EGFP; details: human, HepG2-A16-CD81EGFP cells; read-out: INHIBITION
Listing: cytotoxicity at 10 µM of selected compounds
Response body: numeric value in %, unit text excluded.

Sample CCc1ccc(C2NCCc3cc4c(cc32)OCCO4)cc1 (stereo unspecified) — what was its cytotoxicity at 10 µM?
-6.63

Sample CC(C)N(C)Cc1cnc2n1CCN(S(=O)(=O)c1ccccc1)C2 — what was its cytotoxicity at 10 µM?
-1.72

Sample COc1cccc(CN2CCCC(c3cc(C(N)=O)[nH]n3)C2)c1 (stereo unspecified) — what was its cytotoxicity at 10 µM?
-1.67

Sample CC(CNC(=O)c1cc(Cl)ccc1F)N1CCCC1 (stereo unspecified) — what was its cytotoxicity at 10 µM?
-4.43

Sample O=C(NCC1CCOC1)Nc1ccc(OCC(F)(F)F)nc1 (stereo unspecified) — what was its cytotoxicity at 10 µM?
-5.41

Sample CCc1nc(C2CCCN(C(=O)c3cn(C)nc3C)C2)no1 (stereo unspecified) — what was its cytotoxicity at 10 µM?
-14.5

Sample CC(C(=O)N1CCN(C(=O)c2ccc(F)cc2F)CC1)n1ccnc1 (stereo unspecified) — what was its cytotoxicity at 10 µM?
1.63

Sample COCC(c1cccc(C(F)(F)F)c1)N(C)C(=O)c1cnccn1 (stereo unspecified) — what was its cytotoxicity at 10 µM?
-11.7

Sample O=c1cc(CN2CCCCC2c2cccc(F)c2)[nH]c2ncnn12 (stereo unspecified) — what was its cytotoxicity at 10 µM?
-3.46

Sample O=C(CC1CCc2ccccc21)NC1(C(=O)O)CCCC1 (stereo unspecified) — what was its cytotoxicity at 10 µM?
-11.9

Sample COc1ccccc1CNC(=O)C(C)n1cc2c(n1)c(C)nn2C (stereo unspecified) — what was its cytotoxicity at 10 µM?
1.61

Sample COc1cc(CCC(=O)NC(C)C(=O)O)ccc1OCC(F)(F)F (stereo unspecified) — what was its cytotoxicity at 10 µM?
-2.15

Sample Cc1cc(N2CCC(N(C)C(=O)c3cccs3)CC2)nc(C)n1 — what was its cytotoxicity at 10 µM?
6.74

Sample O=C1CCCCN1CCCNCc1cnc(C2CCC2)s1 — what was its cytotoxicity at 10 µM?
0.00973

Sample Cc1cc(C(F)(F)F)cc(=O)n1CCn1cc(Cl)cn1 — what was its cytotoxicity at 10 µM?
0.382

Sample COc1nccnc1N1CCC2(CCCN(C(C)C)C2=O)C1 (stereo unspecified) — what was its cytotoxicity at 10 µM?
2.57

* * *

assay: Toxicity liver stage against HepG2, at 10uM; type: cell-based; design: test concentration 10 uM, cell line HepG2-A16-CD81EGFP; conditions: human, HepG2-A16-CD81EGFP cells; read-out: INHIBITION
Listing: cytotoxicity at 10 µM of selected molecules
Response body: numeric value in %, unit text excluded.

CC(C)c1cc(NC(=O)CN2CCc3nn(C)c(=O)cc3C2)on1 : -4.44
COc1ccc(CN(CC2CCCO2)c2nc3c(s2)c(C)nn3C)cc1 (stereo not drawn) : 11.4

Consider the record given below.
Sample Cc1c[nH]c(C2COCCN2S(=O)(=O)c2cn[nH]c2)n1 (stereo not drawn) — what was its cytotoxicity at 10 µM?
-22.8

* * *

Listing: cytotoxicity at 10 µM of selected compounds
test: Toxicity liver stage against HepG2, at 10uM; type: cell-based; set-up: test concentration 10 uM, cell line HepG2-A16-CD81EGFP; conditions: human, HepG2-A16-CD81EGFP cells; read-out: INHIBITION
Response body: numeric value in %, unit text excluded.

Study these solved cases before continuing.
CN(CCc1ccccn1)C(=O)CCC1CCCN(c2ccncc2)C1 (stereo not given) : -3.48
CC(Cn1cccn1)NC(=O)NCCCN1CCc2ccccc21 (stereo not given) : -0.449
CC1CCN(S(=O)(=O)N2CCc3c(c(C(=O)O)nn3CC3CC3)C2)CC1 : -0.65

Sample O=C1CC(N(C(=O)Cc2csc(-c3ccccc3)n2)C2CC2)C(=O)N1 (stereo not given) — what was its cytotoxicity at 10 µM?
3.51

Sample CC(C)c1nn(C)c(N(C)C)c1CNCC(O)COc1ccccc1 (stereo not given) — what was its cytotoxicity at 10 µM?
0.142

* * *

test: Toxicity liver stage against HepG2, at 10uM; format: cell-based; set-up: test concentration 10 uM, cell line HepG2-A16-CD81EGFP; details: human, HepG2-A16-CD81EGFP cells; read-out: INHIBITION
Property Label: cytotoxicity at 10 µM
The answer consists of two parts: a number and, after it, its unit.

Study these solved cases before continuing.
O=C(c1cc[nH]c(=O)c1)N1CCn2c(nnc2-c2ccccc2)C1 : -4.71%
O=C(NCc1cncc2c1CCN(C1CCOCC1)C2)c1ccco1 : -0.758%

Sample CC(C)c1cc(NCC2(Cn3cccn3)CC2)nc(N)n1 — what was its cytotoxicity at 10 µM?
3.19%

Sample COCCNC(=O)[C@@H](C)[C@@H]1CCc2c(C)cc(OCC(=O)O)c(C)c2C1 — what was its cytotoxicity at 10 µM?
0.523%

Sample Cc1noc(C2CCN(C(=O)CCc3nccs3)CC2)n1 — what was its cytotoxicity at 10 µM?
-5.43%

Sample Cc1nn(C)c(C)c1-c1cnc(CC2CCNC2)cn1 (stereo not given) — what was its cytotoxicity at 10 µM?
-8.41%

Sample CC(=O)N1CCC(Oc2ccc(Cl)cc2C(=O)N2CCCO2)CC1 — what was its cytotoxicity at 10 µM?
15.3%

* * *

Listing: cytotoxicity at 10 µM of selected molecules
assay: Toxicity liver stage against HepG2, at 10uM; assay type: cell-based; parameters: test concentration 10 uM, cell line HepG2-A16-CD81EGFP; settings: human, HepG2-A16-CD81EGFP cells; read-out: INHIBITION
Response body: numeric value in %, unit text excluded.

Study these solved cases before continuing.
c1cnnc(N2CCCC2CNc2cnc3ccccc3n2)c1 (configuration not stated) : 1.53
COc1ccc(CNC(=O)N2CCOCC2C2CC2)c(C)c1 (configuration not stated) : 4.54
Cc1cc(CCC(=O)N2CCOCC2)ccc1Br : 12.5
CCc1cnc2c(c1Nc1ccc3c(c1)OCO3)c(=O)n(C)c(=O)n2C : 9.06
CC(C)(C)c1ncc(S(C)(=O)=O)c(C2CCCNC2)n1 (configuration not stated) : -12.7
CCC(C)(COc1ncccc1Cl)NCC(=O)NC1CCCCC1 (configuration not stated) : 0.651

Sample COCC1CN(CC2CC2)Cc2ncn(CC3CC3)c21 (configuration not stated) — what was its cytotoxicity at 10 µM?
4.42

Sample Cc1nc(COC(=O)c2cccc3c2OCCO3)no1 — what was its cytotoxicity at 10 µM?
5.55

Sample CNC(=O)C1(c2cnccn2)CCCN1C(=O)c1ccccn1 (configuration not stated) — what was its cytotoxicity at 10 µM?
10.1

Sample CC(=O)N1C[C@H](NC(=O)c2ccnc(N)c2)[C@@H](C(C)C)C1 — what was its cytotoxicity at 10 µM?
8.64

Sample Cc1cc(C)n(CC2CCCN2C(=O)c2cccc(C#N)c2)n1 (configuration not stated) — what was its cytotoxicity at 10 µM?
-9.19

Sample COCCCNC(=O)CN1CCSC(c2ccccc2)C1 (configuration not stated) — what was its cytotoxicity at 10 µM?
13.5

Sample COc1ccc(C)cc1-c1csc(N)c1C#N — what was its cytotoxicity at 10 µM?
-5.18

Sample C=C(C)COc1ccccc1CNC(CC)c1ccnn1C (configuration not stated) — what was its cytotoxicity at 10 µM?
-4.7

Sample c1ccc(OCCN2CCCCC2Cn2cncn2)cc1 (configuration not stated) — what was its cytotoxicity at 10 µM?
-15.7

Sample CSc1ccc(C(=O)C2CCCN(C(=O)CCn3cncn3)C2)cc1 (configuration not stated) — what was its cytotoxicity at 10 µM?
-12.2

Sample O=C(c1cc(CC2(NCc3ccccc3)COC2)no1)N1CCCCC1 — what was its cytotoxicity at 10 µM?
1.14

Sample Fc1cnc(N2CCCC3(CN(Cc4ccncc4)CCO3)C2)nc1 (configuration not stated) — what was its cytotoxicity at 10 µM?
3.34
